Molecular target: mFsp1 (mouse FSP1) (Mus musculus)
Construct: gene Aifm2; recombinant from E. coli BL21, Ni-NTA purified; HA-tagged, codon-optimized in Pfa1 cells for cell assays
Sequence (Q8BUE4 2-373): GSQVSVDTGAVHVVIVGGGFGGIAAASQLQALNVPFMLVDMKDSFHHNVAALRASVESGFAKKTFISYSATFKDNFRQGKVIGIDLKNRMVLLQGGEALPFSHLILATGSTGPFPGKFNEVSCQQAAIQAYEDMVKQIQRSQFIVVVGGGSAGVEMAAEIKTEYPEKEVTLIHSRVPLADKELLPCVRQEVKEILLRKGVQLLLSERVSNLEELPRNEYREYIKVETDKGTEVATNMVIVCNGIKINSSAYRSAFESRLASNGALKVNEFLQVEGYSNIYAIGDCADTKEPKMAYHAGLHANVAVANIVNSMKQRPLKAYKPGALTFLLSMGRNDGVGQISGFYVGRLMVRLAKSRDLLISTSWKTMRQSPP
Experiment: resazurin reduction, fluorescence
Type: biochemical

mol	IC50 [nM]
COc1ccc(N2CC(=O)C(c3nc(C)cs3)=C2N)c(OC)c1	83

###

Target: hFSP1 (human FSP1) (Homo sapiens)
Construct: gene AIFM2; recombinant from E. coli BL21, Ni-NTA purified (His tag implied); HA-tagged in Pfa1 cells for cell assays; cDNA carries C>T:1008 (probably silent)
Sequence (Q9BRQ8 2-373): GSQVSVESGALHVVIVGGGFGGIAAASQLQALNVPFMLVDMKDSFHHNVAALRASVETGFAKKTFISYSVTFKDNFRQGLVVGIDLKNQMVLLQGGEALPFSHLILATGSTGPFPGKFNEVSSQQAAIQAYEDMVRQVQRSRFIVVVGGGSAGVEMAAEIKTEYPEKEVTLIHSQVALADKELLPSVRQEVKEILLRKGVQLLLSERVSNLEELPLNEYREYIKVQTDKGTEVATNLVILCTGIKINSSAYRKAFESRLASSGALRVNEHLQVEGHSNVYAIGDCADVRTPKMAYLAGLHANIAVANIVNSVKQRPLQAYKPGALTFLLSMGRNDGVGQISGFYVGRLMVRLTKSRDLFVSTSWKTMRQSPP
Experiment: resazurin reduction, fluorescence
Assay type: biochemical
Details: read-out: IC50
pIC50: −log10 of the molar value.
result_type: pIC50

mol	system	result_value
COc1ccc(N2CC(=O)C(c3nc(C)cs3)=C2N)c(OC)c1	hFSP1 (human FSP1) (Homo sapiens)	7.47
